Molecular target: human NK1 receptor (Homo sapiens, UniProt P25103)
Sequence (P25103 whole entry): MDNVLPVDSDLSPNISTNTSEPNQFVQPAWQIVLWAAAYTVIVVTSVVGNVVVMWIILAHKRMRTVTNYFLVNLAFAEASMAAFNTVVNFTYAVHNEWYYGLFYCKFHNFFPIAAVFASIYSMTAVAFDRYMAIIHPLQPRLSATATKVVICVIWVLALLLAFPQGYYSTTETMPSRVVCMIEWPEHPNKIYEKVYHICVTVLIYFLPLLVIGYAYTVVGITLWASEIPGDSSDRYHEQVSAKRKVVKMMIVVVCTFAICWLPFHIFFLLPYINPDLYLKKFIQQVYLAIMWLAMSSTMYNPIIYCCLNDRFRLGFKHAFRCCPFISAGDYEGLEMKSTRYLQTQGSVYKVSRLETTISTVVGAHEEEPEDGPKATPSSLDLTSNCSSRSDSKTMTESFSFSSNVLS
Assay: NK1 receptor binding, [3H]substance P displacement, CHO cell membranes
Settings: first value of the cell pKi NK1/NK3; human NK1 receptor, [3H]substance P
Param label: returns MET when Ki < 2 nM, returns NOT MET otherwise, including exact equality.

q: Ki strictly < 2 nM for this compound? Cc1cc(F)ccc1-c1cc(N2CCC[C@H]2CO)ncc1N(C)C(=O)C(C)(C)c1cccc(C(F)(F)F)c1 [Example 26]
a: NOT MET

q: Is 2 nM strictly greater than the compound's reported Ki? compound: Cc1ccccc1-c1cc(N2CC[C@H](O)[C@H](O)C2)ncc1N(C)C(=O)C(C)(C)c1cc(C(F)(F)F)cc(C(F)(F)F)c1 (racemic) [Example 185]
a: MET

q: Threshold test, Ki < 2 nM: Cc1cc(F)ccc1-c1cc(N2CC[C@H](O)[C@H]2CO)ncc1N(C)C(=O)C(C)(C)c1cc(C(F)(F)F)cc(C(F)(F)F)c1 [Example 155]
a: MET

q: Given the entry CCCN(CCO)c1cc(-c2ccccc2C)c(N(C)C(=O)C(C)(C)c2cc(C(F)(F)F)cc(C(F)(F)F)c2)cn1 [Example 119] , would its reported Ki be below 2 nM?
a: NOT MET

q: In the record for C[C@H](O)[C@@H](CO)Nc1cc(-c2ccccc2Cl)c(N(C)C(=O)C(C)(C)c2cc(C(F)(F)F)cc(C(F)(F)F)c2)cn1 [Example 145] , is Ki less than 2 nM?
a: MET

q: Quick check: does CN(C(=O)C(C)(C)c1cc(C(F)(F)F)cc(C(F)(F)F)c1)c1cnc(N2CCC[C@@H](O)[C@H]2CO)cc1-c1ccccc1Cl (racemic) [Example 195] have Ki under 2 nM?
a: MET

q: Could you please tell me whether Ki recorded for CN(C(=O)C(C)(C)c1cc(C(F)(F)F)cc(C(F)(F)F)c1)c1cnc(NC[C@@H](O)CO)cc1-c1ccccc1Cl [Example 126] is less than 2 nM?
a: NOT MET

q: Hello, I'm reviewing records and need to know if Ki of CN(CC(O)CO)c1cc(-c2ccccc2Cl)c(N(C)C(=O)C(C)(C)c2cc(C(F)(F)F)cc(C(F)(F)F)c2)cn1 (racemic) [Example 58] is below 2 nM. Could you check?
a: NOT MET

q: Regarding CN(C(=O)C(C)(C)c1cc(C(F)(F)F)cc(C(F)(F)F)c1)c1cnc(N2C[C@@H](O)[C@@H](O)C2)cc1-c1ccccc1Cl [Example 48] , kindly confirm whether its Ki is beneath 2 nM.
a: MET

q: Find out if reported Ki for Cc1ccccc1-c1cc(N(CC(C)O)CC(C)O)ncc1N(C)C(=O)C(C)(C)c1cc(C(F)(F)F)cc(C(F)(F)F)c1 (stereo not shown) [Example 121] is less than 2 nM
a: NOT MET

q: Problem: For the compound CN(C(=O)C(C)(C)c1cc(C(F)(F)F)cc(C(F)(F)F)c1)c1cnc(N2C[C@H](O)C[C@H]2CO)cc1-c1cccc(Cl)c1 [Example 206] , is Ki under 2 nM?
a: MET

q: Is Ki strictly under 2 nM for the entry CN(C(=O)C(C)(C)c1cc(C(F)(F)F)cc(C(F)(F)F)c1)c1cnc(N2CCCC[C@H]2CO)cc1-c1ccccc1Cl [Example 161] ?
a: NOT MET

###

For each entry below, report its Ki value.
Molecular target: Recombinant human NK3 (hNK3) receptor (Homo sapiens, UniProt P29371)
Construct: expressed in transfected cells
Sequence (P29371 whole entry): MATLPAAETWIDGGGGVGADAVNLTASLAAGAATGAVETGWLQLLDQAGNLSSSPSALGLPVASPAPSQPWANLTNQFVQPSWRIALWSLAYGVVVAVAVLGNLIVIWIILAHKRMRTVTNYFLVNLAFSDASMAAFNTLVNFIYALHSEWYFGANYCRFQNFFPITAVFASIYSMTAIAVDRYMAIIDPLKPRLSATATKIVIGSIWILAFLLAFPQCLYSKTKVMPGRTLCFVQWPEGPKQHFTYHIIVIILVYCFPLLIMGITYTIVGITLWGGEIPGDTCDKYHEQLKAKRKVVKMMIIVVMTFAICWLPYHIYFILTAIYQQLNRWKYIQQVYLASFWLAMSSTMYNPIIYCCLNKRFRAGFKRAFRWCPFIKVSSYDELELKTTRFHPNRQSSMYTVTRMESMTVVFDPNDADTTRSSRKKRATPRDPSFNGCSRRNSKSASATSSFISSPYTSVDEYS
Assay: NK3 receptor binding, [3H]SR142801 displacement, membrane preparations
Conditions: second value of the cell NK1/NK3; read-out: pKi NK3 (converted)
Please give a number only; it is taken to be in nM.

q: Give Ki for the following compound: CN(C(=O)C(C)(C)c1cc(C(F)(F)F)cc(C(F)(F)F)c1)c1cnc(N2C[C@@H](O)C[C@H]2CO)cc1-c1ccccc1F
a: 6.92

q: Provide Ki value for the following compound: Cc1cc(-c2cc(N3C[C@@H](O)C[C@H]3CO)ncc2N(C)C(=O)C(C)(C)c2cc(C(F)(F)F)cc(C(F)(F)F)c2)ccc1F
a: 27.5

q: Provide only the value of recorded Ki for Cc1cc(F)ccc1-c1cc(N2CCC[C@H]2COC(=O)N(C)C)ncc1N(C)C(=O)C(C)(C)c1cc(C(F)(F)F)cc(C(F)(F)F)c1
a: 15.1

###

Molecular target: human NK1 receptor (Homo sapiens)
Assay: NK1 receptor binding, [3H]substance P displacement, CHO cell membranes
Details: first value of the cell pKi NK1/NK3; human NK1 receptor, [3H]substance P
assay_metric: Ki (nM)
API: value field is a number in nM; no unit string.

q: Return Ki for the following compound: Cc1cc(F)ccc1-c1cc(N2CC[C@H](N)C2)ncc1N(C)C(=O)C(C)(C)c1cc(C(F)(F)F)cc(C(F)(F)F)c1 [Example 103]
a: 1.66

q: Recall and state the measured Ki for CN(C(=O)C(C)(C)c1cc(C(F)(F)F)cc(C(F)(F)F)c1)c1cnc(N2CCCCC2CO)cc1-c1ccccc1Cl (racemic) [Example 141] .
a: 6.46

q: Give me measured Ki, please, for this compound: CN(C(=O)C(C)(C)c1cc(C(F)(F)F)cc(C(F)(F)F)c1)c1cnc(N[C@H]2CC[C@H](O)CC2)cc1-c1ccccc1Cl [Example 60]
a: 1.26

q: Give the reported Ki for this compound. CN(C(=O)C(C)(C)c1cc(C(F)(F)F)cc(C(F)(F)F)c1)c1cnc(N[C@H]2CC[C@H](O)CC2)cc1-c1ccccc1Br [Example 132]
a: 1.32

q: Supply reported Ki belonging to this compound: CCCN(CCO)c1cc(-c2ccccc2Cl)c(N(C)C(=O)C(C)(C)c2cc(C(F)(F)F)cc(C(F)(F)F)c2)cn1 [Example 56]
a: 4.57

q: Consider the compound CCN([C@H]1CCN(c2cc(-c3ccc(F)cc3C)c(N(C)C(=O)C(C)(C)c3cc(C(F)(F)F)cc(C(F)(F)F)c3)cn2)C1)S(C)(=O)=O [Example 106] . State its measured Ki.
a: 0.589

###

Molecular target: human NK1 receptor (Homo sapiens, UniProt P25103)
Assay: NK1 receptor binding, [3H]substance P displacement, CHO cell membranes
Details: first value of the cell NK1/NK3; read-out: pKi NK1 (converted)
assay_metric: Ki (nM)
Response body: numeric value in nM, unit text excluded.

q: Note down Ki recorded for CN(C(=O)C(C)(C)c1cc(C(F)(F)F)cc(C(F)(F)F)c1)c1cnc(N2C[C@@H](O)C[C@H]2CO)cc1-c1ccccc1Br [Example 246]
a: 1.91

q: Report Ki, nothing else, for this compound: Cc1noc(C)c1-c1cc(N2C[C@H](O)C[C@H]2CO)ncc1N(C)C(=O)C(C)(C)c1cc(C(F)(F)F)cc(C(F)(F)F)c1 [Example 230]
a: 0.741

q: Output Ki of CN(C(=O)C(C)(C)c1cc(C(F)(F)F)cc(C(F)(F)F)c1)c1cnc(N2C[C@H](O)C[C@H]2CO)cc1-c1ccc(F)cc1C=O [Example 222]
a: 1.05

###

Molecular target: human NK1 receptor (Homo sapiens)
Assay: NK1 receptor binding, [3H]substance P displacement, CHO cell membranes
Details: first value of the cell pKi NK1/NK3; human NK1 receptor, [3H]substance P
pKi: −log10 of the molar value.
Note to self: values exactly at 9 are 1. So pKi at or above 9 is 1, below is 0.

q: Is reported pKi greater than or equal to 9 here: CN(C(=O)C(C)(C)c1cc(C(F)(F)F)cc(C(F)(F)F)c1)c1cnc(N2C[C@H](O)C[C@H]2CO)cc1-c1ccc(Cl)cc1
a: 0

q: Decide: is the reported value of pKi for CCN(C(C)=O)[C@H]1CCN(c2cc(-c3ccc(F)cc3C)c(N(C)C(=O)C(C)(C)c3cc(C(F)(F)F)cc(C(F)(F)F)c3)cn2)C1 equal to or greater than 9?
a: 0

q: Textbook exercise: given the entry CCCCCCN(CCO)c1cc(-c2ccccc2Cl)c(N(C)C(=O)C(C)(C)c2cc(C(F)(F)F)cc(C(F)(F)F)c2)cn1 , state whether its pKi is greater than or equal to 9.
a: 0

q: Determine whether this compound has pKi no lower than 9: CN(C(=O)C(C)(C)c1cc(C(F)(F)F)cc(C(F)(F)F)c1)c1cnc(N2C[C@@H](O)[C@H](O)C2)cc1-c1ccccc1Cl
a: 1

q: Does the compound CN(C(=O)C(C)(C)c1cc(C(F)(F)F)cc(C(F)(F)F)c1)c1cnc(NCCS(C)(=O)=O)cc1-c1ccccc1Cl have recorded pKi that is 9 or more?
a: 1

q: Entry Cc1cc(F)ccc1-c1cc(N2CC(O)C2)ncc1N(C)C(=O)C(C)(C)c1cc(C(F)(F)F)cc(C(F)(F)F)c1 : is its pKi no less than 9?
a: 0

q: Is the recorded value of pKi equal to or greater than 9 for this compound? C[C@H](O)CNc1cc(-c2ccc(Cl)cc2Cl)c(N(C)C(=O)C(C)(C)c2cc(C(F)(F)F)cc(C(F)(F)F)c2)cn1
a: 0
